# measured-target: human TLR9 (Homo sapiens, UniProt Q9NR96)
# Construct: host or cells: HEK-Blue cells (HEK293-derived reporter line)
# Sequence (Q9NR96 26-1032): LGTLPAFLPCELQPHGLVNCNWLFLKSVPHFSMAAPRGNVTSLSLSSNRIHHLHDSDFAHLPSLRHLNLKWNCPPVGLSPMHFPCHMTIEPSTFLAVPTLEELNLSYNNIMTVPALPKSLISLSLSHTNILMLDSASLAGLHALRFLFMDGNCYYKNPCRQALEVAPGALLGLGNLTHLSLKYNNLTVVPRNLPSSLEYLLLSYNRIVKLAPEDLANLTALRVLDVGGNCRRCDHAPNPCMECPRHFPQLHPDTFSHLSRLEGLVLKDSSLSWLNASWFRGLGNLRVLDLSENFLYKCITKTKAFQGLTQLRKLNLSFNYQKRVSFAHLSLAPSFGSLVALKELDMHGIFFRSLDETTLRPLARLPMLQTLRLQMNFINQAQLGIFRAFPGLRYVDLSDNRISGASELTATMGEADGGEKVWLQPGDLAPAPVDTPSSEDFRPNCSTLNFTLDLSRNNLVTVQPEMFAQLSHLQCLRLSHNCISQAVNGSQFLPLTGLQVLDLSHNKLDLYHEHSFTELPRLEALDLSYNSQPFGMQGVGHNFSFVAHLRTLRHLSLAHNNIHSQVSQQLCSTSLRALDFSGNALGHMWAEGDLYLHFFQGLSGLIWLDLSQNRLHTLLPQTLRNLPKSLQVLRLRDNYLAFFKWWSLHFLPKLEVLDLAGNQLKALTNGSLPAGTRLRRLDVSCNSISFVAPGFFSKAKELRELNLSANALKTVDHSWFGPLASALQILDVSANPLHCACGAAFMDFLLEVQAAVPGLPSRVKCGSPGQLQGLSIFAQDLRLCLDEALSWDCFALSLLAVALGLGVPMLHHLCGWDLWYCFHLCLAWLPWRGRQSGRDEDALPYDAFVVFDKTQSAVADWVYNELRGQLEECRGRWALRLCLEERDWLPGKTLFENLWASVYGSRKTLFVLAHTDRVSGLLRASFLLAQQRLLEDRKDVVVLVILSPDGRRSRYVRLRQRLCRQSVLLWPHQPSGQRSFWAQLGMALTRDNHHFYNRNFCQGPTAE
# test: TLR9 inhibition reporter assay (HEK-Blue cells, secreted embryonic alkaline phosphatase reporter)
# Type: cell-based
pIC50 values by entry
Give only the number. pIC50 is defined as minus log10 of concentration in molar units.

Use the examples below as a reference point.
[
  {
    "compound": "Cn1c(-c2ccc(S(C)(=O)=O)cc2)nc2c(F)c(C3CCN(C4CC5CCC(C4)N5C4COC4)CC3)ccc21 (stereo not drawn) [Example 195]",
    "measured-number": 6.31
  },
  {
    "compound": "Cn1c(-c2ccc(S(C)(=O)=O)cc2)nc2c(F)c(C3CCN(C4CC5CCC(C4)N5C4CCOCC4)CC3)ccc21 (stereo not drawn) [Example 198]",
    "measured-number": 7.24
  }
]

GET /value?item= Cn1c(-c2ccc(S(C)(=O)=O)cc2)nc2ccc(C3CCN(C4CCN(C5CC5)CC4)CC3)c(F)c21 [Example 260] &field=pIC50 returns 6.18

GET /value?item= Cn1c(-c2ccc(S(C)(=O)=O)cc2)nc2cc(C3CCN(C4CC5CCC(C4)N5C4CCOCC4)CC3)c(F)cc21 (single isomer, unassigned) [Example 255] &field=pIC50 returns 7.14

GET /value?item= Cn1c(-c2ccc(S(C)(=O)=O)cc2)nc2cc(C3CCN(C4CC5CCC(C4)N5C4CCC4)CC3)cc(F)c21 (single isomer, unassigned) [Example 216] &field=pIC50 returns 6.57

GET /value?item= CC(C)CN1CCC(N2CCC(c3ccc4c(nc(-c5ccc(S(C)(=O)=O)cc5)n4C)c3F)CC2)CC1 [Example 184] &field=pIC50 returns 6.07

###

pIC50 values by entry
# measured-target: human TLR7 (Homo sapiens, UniProt Q9NYK1)
# Sequence (Q9NYK1 27-1049): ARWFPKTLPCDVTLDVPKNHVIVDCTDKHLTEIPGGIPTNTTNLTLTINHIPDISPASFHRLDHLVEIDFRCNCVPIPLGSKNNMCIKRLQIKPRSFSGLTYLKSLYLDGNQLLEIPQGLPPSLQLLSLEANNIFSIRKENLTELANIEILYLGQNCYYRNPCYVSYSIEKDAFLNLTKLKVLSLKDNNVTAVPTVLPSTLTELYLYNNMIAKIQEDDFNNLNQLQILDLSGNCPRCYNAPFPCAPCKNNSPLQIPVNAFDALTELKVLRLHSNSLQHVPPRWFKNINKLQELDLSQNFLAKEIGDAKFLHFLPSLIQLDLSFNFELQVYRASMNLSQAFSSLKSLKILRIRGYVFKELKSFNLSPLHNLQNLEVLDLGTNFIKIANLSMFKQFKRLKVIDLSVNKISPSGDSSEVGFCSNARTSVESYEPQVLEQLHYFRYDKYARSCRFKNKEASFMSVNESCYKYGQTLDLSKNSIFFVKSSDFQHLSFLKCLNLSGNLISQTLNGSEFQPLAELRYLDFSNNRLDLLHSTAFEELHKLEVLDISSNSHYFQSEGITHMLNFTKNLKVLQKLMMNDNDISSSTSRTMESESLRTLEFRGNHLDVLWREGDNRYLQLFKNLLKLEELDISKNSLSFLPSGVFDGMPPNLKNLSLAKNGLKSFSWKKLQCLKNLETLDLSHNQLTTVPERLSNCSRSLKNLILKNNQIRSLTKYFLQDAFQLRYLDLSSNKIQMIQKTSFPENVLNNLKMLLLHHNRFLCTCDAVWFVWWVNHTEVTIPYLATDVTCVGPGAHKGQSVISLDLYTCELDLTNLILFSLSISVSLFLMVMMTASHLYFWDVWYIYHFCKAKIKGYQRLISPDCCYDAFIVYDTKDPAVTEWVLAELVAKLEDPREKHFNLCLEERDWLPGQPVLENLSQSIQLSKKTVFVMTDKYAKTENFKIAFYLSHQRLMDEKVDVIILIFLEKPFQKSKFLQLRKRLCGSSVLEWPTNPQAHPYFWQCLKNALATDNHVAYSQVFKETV
# test: TLR7 inhibition reporter assay (HEK-Blue cells, secreted embryonic alkaline phosphatase reporter)
# condition-info: HEK-Blue cells overexpressing human TLR7, stimulated with gardiquimod 7.5 μM; read-out: TLR 7 IC50
Give only the number. pIC50 is defined as minus log10 of concentration in molar units.

Use the examples below as a reference point.
[
  {
    "compound": "CN(C)C1CCN(Cc2ccc(-c3ccc4nc(-c5ccc(S(C)(=O)=O)cc5F)n(C)c4c3)cc2)CC1",
    "pIC50": 5.89
  },
  {
    "compound": "COc1ccc(-c2nc3ccc(C4CCN(C5CCN(CC(C)C)CC5)CC4)cc3n2C)cc1OC",
    "pIC50": 4.49
  },
  {
    "compound": "COc1ccc(-c2nc3cc(C4CCN(C5CCN(C(C)C)CC5)CC4)ccc3n2CC(F)F)cc1OC",
    "pIC50": 5.24
  },
  {
    "compound": "COCCN1C2CCC1CC(N1CCC(c3ccc4c(nc(-c5ccc(S(C)(=O)=O)cc5)n4C)c3F)CC1)C2 (single isomer, unassigned) [Example 200]",
    "pIC50": 4.32
  },
  {
    "compound": "COCCN1C2CCC1CC(N1CCC(c3cc(C)c4nc(-c5ccc(OC)c(OC)c5)n(C)c4c3)CC1)C2 (single isomer, unassigned) [Example 169]",
    "pIC50": 4.98
  }
]

GET /value?item= CCOP(=O)(OCC)c1ccc(-c2nc3c(C)cc(C4CCN(C5CCN(CC(C)C)CC5)CC4)cc3n2C)cc1 &field=pIC50 returns 6.15

GET /value?item= CC(C)CN1C2CCC1CC(N1CCC(c3ccc4nc(-c5ccc(S(C)(=O)=O)cc5)[nH]c4c3F)CC1)C2 (single isomer, unassigned) [Example 220] &field=pIC50 returns 4.38

GET /value?item= COCCN1C2CCC1CC(N1CCC(c3ccc4nc(-c5ccc(S(C)(=O)=O)cc5)n(C)c4c3F)CC1)C2 (single isomer, unassigned) [Example 276] &field=pIC50 returns 5.82
